meta.source: PubChem BioAssay AID1159580

test: chemical genetic growth profiling, strain panel (AID 1159580);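 further: tested at 20 µM; growth read once vehicle control cultures reached saturation at 30 °C; 1 = growth at the plate median or of vehicle wells; lower values mean less growth of the strain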; settings: S. cerevisiae deletion strains, growth OD, locus YLR039C, strain RIC1
In all, about 5,500 compounds went through this assay and about 2,000 (36%) were called active. Roughly 18% stayed inconclusive and do not appear here. No stated cut-off is given here; in the data, active means normalized growth mostly below about 0.91 (no sharp cut-off); inconclusive means no clear call, values can overlap the other calls; inactive means mostly above about 0.92. This is one part of the list.
# valid calls are Y = active, N = inactive; nothing else

| COMPOUND | LABEL VALUE |
| --- | --- |
| CCOC(=O)C1(O)Oc2cc(OC)cc(OC)c2C(=O)C1c1ccccc1 (stereo not drawn) | N |

[ask] Hello, I am checking results. What call was entered for `Cc1ccc(-c2csc(-c3ccc(Cl)cc3)n2)c(C)c1` ?
[reply] N

[ask] Hello, I am checking results. What call was entered for CCOC(=O)C(=O)C1(C(=O)OCC)Oc2cc(OC)cc(OC)c2C(=O)C1c1ccccc1 (stereo not drawn) ?
[reply] N

[ask] Hello, I am checking results. What call was entered for `CCC(=O)O[C@H]1[C@H](O[C@@H]2[C@@H](C)[C@H](O[C@H]3C[C@@](C)(OC)[C@@H](O)[C@H](C)O3)[C@@H](C)C(=O)O[C@H](CC)[C@@](C)(O)[C@H](O)[C@@H](C)C(=O)[C@H](C)C[C@@]2(C)O)O[C@H](C)C[C@@H]1N(C)C` ?
[reply] N

[ask] Hello, I am checking results. What call was entered for C[C@H]1OC(n2cc(F)c(=O)[nH]c2=O)C(O)[C@@H]1O (stereo partly drawn) ?
[reply] N

[ask] Hello, I am checking results. What call was entered for `c1ccc(N=Nc2ccc(Nc3ccccc3)cc2)cc1` ?
[reply] Y

[ask] Hello, I am checking results. What call was entered for `CC(C)(C)c1ccc(-c2nc(-c3cc(C(C)(C)C)c(O)c(C(C)(C)C)c3)cs2)cc1` ?
[reply] N

[ask] Hello, I am checking results. What call was entered for CC1=C(/C=C/C(C)=C/C=C/C(C)=C/C=C/C=C(C)/C=C/C=C(C)/C=C/C23OC2(C)CC(O)CC3(C)C)C(C)(C)CC(O)C1 (stereo not drawn) ?
[reply] N

[ask] Hello, I am checking results. What call was entered for CC(C)CC(NC(=O)C(Cc1ccccc1)NC(=O)CNC(=O)CNC(=O)C(N)Cc1ccc(O)cc1)C(=O)O (stereo not drawn) ?
[reply] Y

[ask] Hello, I am checking results. What call was entered for CC(=O)NC1SCCC1=O (stereo not drawn) ?
[reply] N

====

experiment: chemical genetic growth profiling, strain panel (AID 1159580);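 further: tested at 20 µM; growth read once vehicle control cultures reached saturation at 30 °C; 1 = growth at the plate median or of vehicle wells; lower values mean less growth of the strain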; conditions: S. cerevisiae deletion strains, growth OD, locus YOR144C, strain elg1, active compounds read low
About 2,000 (36%) of roughly 5,500 compounds were called active. About 18% were inconclusive and are not listed. The list shows a part of the results.
MEASURED PARAMETER: normalized growth
A bare number is all that is needed in reply.

| COMPOUND | normalized growth |
| --- | --- |
| CCOC(=O)[C@H](CCc1ccccc1)N[C@H]1CCc2ccccc2N(CC(=O)O)C1=O | 0.965 |
| S=c1nc[nH]c2nc[nH]c12 | 1 |
| CCN(CC)CCCC(C)Nc1ccnc2cc(Cl)ccc12 (configuration not stated) | 0.993 |
| CCN(CC)CCCC(C)Nc1c2ccc(Cl)cc2nc2ccc(OC)cc12 (configuration not stated) | 0.776 |

[ask] Give its normalized growth value. Item: CCOC(=O)C1(O)Oc2cc(OC)cc(OC)c2C(=O)C1c1ccccc1 (configuration not stated)
[reply] 0.988

[ask] Give its normalized growth value. Item: CCN(CCO)CCCC(C)Nc1ccnc2cc(Cl)ccc12 (configuration not stated)
[reply] 1.02

[ask] Give its normalized growth value. Item: `CCN(CC)CCNC(=O)c1cc(Br)c(N)cc1OC`
[reply] 0.998

[ask] Give its normalized growth value. Item: `CNCCc1ccccn1`
[reply] 1.01
